Measured target: T1, human CCR8 (human, UniProt P51685 1-355)
T1 construct: Native CCR8 on human PBMC (CCR8+ CD3+ or CCR8+ CD4+ lymphocytes); also called chemokine (C-C motif) receptor 8
T1 sequence (P51685 whole entry): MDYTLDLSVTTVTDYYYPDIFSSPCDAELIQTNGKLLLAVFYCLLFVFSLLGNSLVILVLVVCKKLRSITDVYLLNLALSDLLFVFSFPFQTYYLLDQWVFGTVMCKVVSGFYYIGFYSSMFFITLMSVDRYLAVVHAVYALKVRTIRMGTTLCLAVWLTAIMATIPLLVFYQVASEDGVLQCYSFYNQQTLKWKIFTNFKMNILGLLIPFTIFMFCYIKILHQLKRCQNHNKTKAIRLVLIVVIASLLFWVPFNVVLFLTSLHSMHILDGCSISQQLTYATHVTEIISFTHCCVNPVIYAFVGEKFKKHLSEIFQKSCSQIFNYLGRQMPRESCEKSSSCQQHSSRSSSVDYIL
Assay method text: flow blocking, PBMC CCR8+CD4+; competitor PE-AB6
Below: a set of entries, each annotated with reported % Blocking.
Give a bare numeral; the unit % is implied.

Example entries and their recorded answers appear below.
Fill in % Blocking for record AB13 (antibody, V domains shown, Hybridoma monoclonal; also called antibody 13; clone 13) VH: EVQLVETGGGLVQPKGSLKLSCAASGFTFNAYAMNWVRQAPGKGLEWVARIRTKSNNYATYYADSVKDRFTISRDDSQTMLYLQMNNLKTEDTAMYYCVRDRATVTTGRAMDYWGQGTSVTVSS VL: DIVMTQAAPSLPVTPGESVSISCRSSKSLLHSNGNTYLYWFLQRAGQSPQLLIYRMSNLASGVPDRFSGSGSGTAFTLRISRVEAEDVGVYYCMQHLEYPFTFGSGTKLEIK
1.49

Return the recorded % Blocking value; entry: AB4 (antibody, V domains shown, Hybridoma monoclonal; also called antibody 4; clone 4) VH: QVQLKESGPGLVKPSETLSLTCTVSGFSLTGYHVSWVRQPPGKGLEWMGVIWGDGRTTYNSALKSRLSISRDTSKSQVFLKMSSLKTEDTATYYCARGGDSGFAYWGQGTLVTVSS VL: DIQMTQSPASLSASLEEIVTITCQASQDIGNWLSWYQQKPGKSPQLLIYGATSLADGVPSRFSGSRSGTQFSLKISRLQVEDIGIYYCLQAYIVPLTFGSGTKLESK
87.1

Please list % Blocking recorded for the binder AB2 (antibody, V domains shown, Hybridoma monoclonal; Same VH/VL entries as AB1; also called antibody 2; clone 2) VH: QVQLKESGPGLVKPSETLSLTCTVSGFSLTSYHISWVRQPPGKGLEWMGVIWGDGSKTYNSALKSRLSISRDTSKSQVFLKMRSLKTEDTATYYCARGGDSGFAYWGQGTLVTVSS VL: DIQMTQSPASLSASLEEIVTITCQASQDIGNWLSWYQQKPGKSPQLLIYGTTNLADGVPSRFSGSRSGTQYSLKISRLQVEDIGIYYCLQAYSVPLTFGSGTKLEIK
93.6

Next:
Entry AB11 (antibody, V domains shown, Hybridoma monoclonal; also called antibody 11; clone 11) VH: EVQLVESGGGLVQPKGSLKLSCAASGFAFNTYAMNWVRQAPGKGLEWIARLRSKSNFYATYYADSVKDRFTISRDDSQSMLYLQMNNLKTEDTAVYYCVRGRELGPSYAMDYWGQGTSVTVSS VL: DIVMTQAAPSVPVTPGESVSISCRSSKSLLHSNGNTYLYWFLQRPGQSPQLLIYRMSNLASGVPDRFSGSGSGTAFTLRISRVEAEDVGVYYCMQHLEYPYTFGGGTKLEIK needs its % Blocking filled in; supply it.
-5.45

Complete the entry with % Blocking for AB15 (antibody, V domains shown, Hybridoma monoclonal; Same VH/VL entries as AB14; also called antibody 15; clone 15) VH: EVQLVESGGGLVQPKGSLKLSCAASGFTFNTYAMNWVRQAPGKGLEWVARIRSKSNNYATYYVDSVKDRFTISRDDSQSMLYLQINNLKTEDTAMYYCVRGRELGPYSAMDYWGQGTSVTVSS VL: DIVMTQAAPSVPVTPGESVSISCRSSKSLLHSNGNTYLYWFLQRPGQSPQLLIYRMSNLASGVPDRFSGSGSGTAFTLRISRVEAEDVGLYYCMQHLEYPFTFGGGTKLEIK
-23.8

Quickly give me recorded % Blocking for AB12 (antibody, V domains shown, Hybridoma monoclonal; also called antibody 12; clone 12) VH: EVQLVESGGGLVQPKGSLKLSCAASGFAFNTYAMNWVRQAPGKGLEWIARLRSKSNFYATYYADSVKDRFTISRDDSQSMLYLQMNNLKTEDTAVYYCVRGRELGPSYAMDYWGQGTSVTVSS VL: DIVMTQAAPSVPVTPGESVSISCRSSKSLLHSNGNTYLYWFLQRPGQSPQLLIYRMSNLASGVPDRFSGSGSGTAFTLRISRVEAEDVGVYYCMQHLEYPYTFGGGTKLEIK
-15.3

Quote % Blocking reported for AB14 (antibody, V domains shown, Hybridoma monoclonal; Same VH/VL entries as AB15; also called antibody 14; clone 14) VH: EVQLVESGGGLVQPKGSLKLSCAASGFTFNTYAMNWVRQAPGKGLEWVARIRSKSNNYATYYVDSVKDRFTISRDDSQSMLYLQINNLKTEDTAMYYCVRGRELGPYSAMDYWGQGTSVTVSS VL: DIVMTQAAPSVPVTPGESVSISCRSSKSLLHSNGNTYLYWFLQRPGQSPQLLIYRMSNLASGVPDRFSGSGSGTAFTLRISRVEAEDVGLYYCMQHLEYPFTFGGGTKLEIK please.
-3.47
